target: NPR-B (Homo sapiens); construct: a functional assay using endogenously NPR-B expressing GTM-3 cells; endogenous in cells; host or cells: GTM-3 (transformed human trabecular meshwork cells); assay: NPR-B induced production of cyclic GMP in GTM-3 cells; format: cell-based; details: GTM-3 cells; group needs both EC50 and Emax criteria, checked A then B then C; read-out: Activity (group): NPR-B activation, EC50 and Emax (CNP = 100%)
Sequence (P20594 23-1047): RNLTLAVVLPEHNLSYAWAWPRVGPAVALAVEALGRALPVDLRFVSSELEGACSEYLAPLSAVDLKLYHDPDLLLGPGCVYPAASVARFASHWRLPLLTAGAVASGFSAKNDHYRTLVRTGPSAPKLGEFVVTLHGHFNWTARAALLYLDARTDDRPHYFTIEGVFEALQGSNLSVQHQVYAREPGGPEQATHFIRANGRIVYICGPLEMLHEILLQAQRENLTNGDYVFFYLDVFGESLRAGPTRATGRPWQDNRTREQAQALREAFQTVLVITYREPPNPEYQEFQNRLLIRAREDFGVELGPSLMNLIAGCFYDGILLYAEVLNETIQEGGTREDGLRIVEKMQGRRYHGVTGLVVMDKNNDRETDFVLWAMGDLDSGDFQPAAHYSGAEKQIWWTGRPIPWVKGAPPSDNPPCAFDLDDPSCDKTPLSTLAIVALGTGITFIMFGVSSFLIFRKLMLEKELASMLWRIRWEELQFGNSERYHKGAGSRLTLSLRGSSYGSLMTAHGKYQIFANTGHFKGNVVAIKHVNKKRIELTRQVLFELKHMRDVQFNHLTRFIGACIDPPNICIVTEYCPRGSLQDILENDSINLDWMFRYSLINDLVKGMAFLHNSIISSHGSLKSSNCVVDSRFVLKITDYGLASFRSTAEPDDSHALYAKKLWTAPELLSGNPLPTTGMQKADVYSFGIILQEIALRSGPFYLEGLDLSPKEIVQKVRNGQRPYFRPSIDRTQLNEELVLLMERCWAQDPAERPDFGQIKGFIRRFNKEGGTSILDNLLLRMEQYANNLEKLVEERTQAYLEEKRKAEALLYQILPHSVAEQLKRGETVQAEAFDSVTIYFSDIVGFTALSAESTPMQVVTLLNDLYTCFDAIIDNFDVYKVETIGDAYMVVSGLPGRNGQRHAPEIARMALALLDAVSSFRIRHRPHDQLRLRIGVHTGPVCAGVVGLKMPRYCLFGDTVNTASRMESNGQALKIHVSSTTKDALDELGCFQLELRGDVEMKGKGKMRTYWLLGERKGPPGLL
Where a SMILES comes first, the peptide text is derived from it. Bridges are numbered along the chain shown (N, C = ends). [ ]: non-standard residue; d: D form.
Consider the following molecules; for each one, report its EC50.

*Q* Tell me the measured EC50 of CC[C@H](C)[C@@H]1NC(=O)[C@H](CCCNC(=N)N)NC(=O)[C@H](CC(=O)O)NC(=O)[C@H](CC(C)C)NC(=O)[C@H](CCCNC(=N)N)NC(=O)[C@H](CC(C)C)NC(=O)CNC(=O)[C@H](Cc2ccccc2)NC(=O)[C@@H](Cc2c[nH]cn2)NC(=O)[C@@H](NC(=O)[C@@H](N)CCSC)CSSC[C@@H](C(N)=O)NC(=O)[C@H](CO)NC1=O [compound 42] (H-MC[dH]FGLRLDRISC-NH2; disulfide 2-13) , please.
*A* < 5 µM

*Q* Same question for "CC[C@H](C)[C@@H]1NC(=O)[C@H](CCCNC(=N)N)NC(=O)[C@H](CC(=O)O)NC(=O)[C@H](CC(C)C)NC(=O)[C@H](CCCCN)NC(=O)[C@H](CC(C)C)NC(=O)[C@@H](C)NC(=O)[C@H](Cc2ccccc2)NC(=O)[C@@H](Cc2c[nH]cn2)NC(=O)[C@@H](NC(=O)[C@@H](N)CCSC)CSSC[C@@H](C(N)=O)NC(=O)[C@H](CO)NC1=O" please.
*A* < 5 µM

*Q* Same question for CC[C@H](C)[C@@H]1NC(=O)[C@H](CCCNC(=N)N)NC(=O)[C@H](CC(=O)O)NC(=O)[C@H](CC(C)C)NC(=O)[C@H](CCCCN)NC(=O)[C@H](CC(C)C)NC(=O)CNC(=O)[C@H](Cc2ccccc2)NC(=O)[C@H](Cc2c[nH]cn2)NC(=O)[C@@H](NC(=O)[C@@H](N)CCSC)CSSC[C@@H](C(=O)N[C@@H](CC(N)=O)C(=O)N[C@@H](CCCNC(=N)N)C(N)=O)NC(=O)[C@H](CO)NC1=O [compound 22] (H-MCHFGLKLDRISCNR-NH2; disulfide 2-13) please.
*A* < 5 µM

*Q* Same question for CC[C@H](C)[C@@H]1NC(=O)[C@H](CCCNC(=N)N)NC(=O)[C@H](CC(=O)O)NC(=O)[C@H](CC(C)C)NC(=O)[C@H](CCCCN)NC(=O)[C@H](CC(C)C)NC(=O)CNC(=O)[C@H](Cc2ccccc2)NC(=O)[C@H](Cc2c[nH]cn2)NC(=O)[C@@H](NC(=O)[C@@H](N)CCSC)CSSC[C@@H](C(=O)N[C@@H](Cc2c[nH]c3ccccc23)C(=O)N[C@@H](CCCNC(=N)N)C(N)=O)NC(=O)[C@H](CO)NC1=O [compound 21] (H-MCHFGLKLDRISCWR-NH2; disulfide 2-13) please.
*A* < 15 µM

*Q* Same question for "CC[C@H](C)[C@@H]1NC(=O)[C@H](CCCNC(=N)N)NC(=O)[C@H](CC(=O)O)NC(=O)[C@H](CC(C)C)NC(=O)[C@H](CCCCN)NC(=O)[C@H](CC(C)C)NC(=O)CNC(=O)[C@H](Cc2ccccc2)NC(=O)[C@H](Cc2c[nH]cn2)NC(=O)[C@@H](NC(=O)[C@H](N)CCSC)CSSC[C@@H](C(N)=O)NC(=O)[C@H](CO)NC1=O" please.
*A* < 5 µM
